Values from the supplement of paper PMC11451515

- Tested on: SEM cells
- experiment description: cell viability relative to DMSO control; higher = less cytotoxic
- protocol conditions: HPLM + 10% dialyzed FBS; 48 h; 0.000781 µM
Just a reminder that ties go to f: only cell viability strictly below 90% counts as t.

{"molecule": "C[C@@H]1O[C@@H](O[C@H]\\2CC[C@]\\3(C)[C@@H]4CC[C@]5(C)[C@@H](CC[C@@]5(O)[C@H]4CCC3=C2)C/6=C/OC(=O)/C=C6)[C@H](O)[C@H](O)[C@@H]1O", "assigned label": "f"}
{"molecule": "CC(C)[C@@H](N(CCCN)C(=O)C1=CC=C(C)C=C1)C/2=C(\\CC3=CC=CC=C3)C(=O)C4=C(O2)C=C(Cl)C=C4", "assigned label": "t"}
{"molecule": "CCN(CC)CCOC1=CC=C(NC2=NC=C3\\C=C(/C(=O)N(C)C3=N2)C4=C(Cl)C=CC=C4Cl)C=C1", "assigned label": "f"}
{"molecule": "CN(C)C(=O)COC(=O)Cc1ccc(OC(=O)c2ccc(NC(=N)N)cc2)cc1", "assigned label": "f"}
{"molecule": "CC(C)[C@H](CO)Nc1nc(Nc2ccc(C(=O)O)c(Cl)c2)c2ncn(C(C)C)c2n1", "assigned label": "f"}
{"molecule": "CCOc1cc2c(c(F)c1OCC)C(=N)N(CC(=O)c1cc(N3CCOCC3)c(OC)c(C(C)(C)C)c1)C2", "assigned label": "f"}
{"molecule": "CCc1cc(/C(C)=N/OCc2ccc(C3CCCCC3)c(C(F)(F)F)c2)ccc1CN1CC(C(=O)O)C1", "assigned label": "f"}
{"molecule": "Cc1c(OCC(F)(F)F)ccnc1C[S+]([O-])c1nc2ccccc2[nH]1 (centres undefined)", "assigned label": "f"}
{"molecule": "COc1ccc([C@@H]2CNC(=O)C2)cc1OC1CCCC1", "assigned label": "t"}
{"molecule": "COc1cc(/C=C/C(=O)CC(=O)/C=C/c2ccc(O)c(OC)c2)ccc1O", "assigned label": "t"}
{"molecule": "CC(=O)SCC(Cc1ccccc1)C(=O)NCC(=O)OCc1ccccc1 (centres undefined)", "assigned label": "t"}
{"molecule": "CN(C)c1ccc(C(=O)NCCCCCCC(=O)NO)cc1", "assigned label": "f"}

---

Reported cell viability by item:
- Tested on: NOMO1
- experiment description: cell viability relative to DMSO control; higher = less cytotoxic
- protocol conditions: HPLM + 10% dialyzed FBS; 48 h; 0.569 µM

{"entry smiles": "CC1(C)O[C@H]2CC(=O)OC[C@]23[C@H]2CC[C@@]4(C)[C@H](c5ccoc5)OC(=O)[C@H]5O[C@]54[C@]2(C)C(=O)C[C@@H]13", "cell viability": "99.2%"}
{"entry smiles": "COc1cc(N2CCC(N3CCN(C)CC3)CC2)ccc1Nc1ncnc(Nc2ccccc2[S+](=O)([O-])C(C)C)n1", "cell viability": "144%"}
{"entry smiles": "COC1=CC=C(C=C1)C/2=C/OC3=CC(=CC=C3C2=O)O", "cell viability": "119%"}
{"entry smiles": "CCOC(=O)c1ncn2c1CN(C)C(=O)c1cc(F)ccc1-2", "cell viability": "109%"}
{"entry smiles": "CC(Oc1ccc(O)cc1)(P(=O)(O)O)P(=O)(O)O", "cell viability": "91.3%"}
{"entry smiles": "CC1=C(/C=C/C(C)=C/C=C/C(C)=C/C(=O)Nc2ccc(O)cc2)C(C)(C)CCC1", "cell viability": "94.6%"}
{"entry smiles": "CC(C)[C@H](CO)Nc1nc(Nc2ccc(C(=O)O)c(Cl)c2)c2ncn(C(C)C)c2n1", "cell viability": "109%"}
{"entry smiles": "COc1ccc2cccc(CCNC(C)=O)c2c1", "cell viability": "122%"}
{"entry smiles": "Nc1ccc([S+](=O)([O-])Nc2ccccn2)cc1", "cell viability": "140%"}
{"entry smiles": "CNC(=O)c1cc(Oc2ccc(NC(=O)Nc3cc(C(C)(C)C)nn3-c3ccc4ncccc4c3)c(F)c2)ccn1", "cell viability": "135%"}
{"entry smiles": "c1cc(OCCN2CCCCC2)cc(-c2n[nH]c3ccc(-c4nc[nH]n4)cc23)c1", "cell viability": "127%"}
{"entry smiles": "O=C1c2cccc(O)c2C(=O)c2c(O)cc(CO)cc21", "cell viability": "82.5%"}
{"entry smiles": "CC1(C)OC/2=C(\\[C@H](NCC3=CC=CC=C3)[C@@H]1O)C(=O)C4=CC=CC=C4C2=O", "cell viability": "108%"}
{"entry smiles": "CCN(CC)CCOC1=CC=C(NC2=NC=C3\\C=C(/C(=O)N(C)C3=N2)C4=C(Cl)C=CC=C4Cl)C=C1", "cell viability": "97.5%"}
